- protocol.details: Cytotoxicity against mouse J774 cells assessed as cell viability at 100 ug/ml after 48 hrs by MTT assay
- Assay type: cell-based
- study.conditions: read-out: Activity
Exercise: for every item that follows, state its recorded viability at 48 h, 100 ug/ml.
Expressed in %, but write only the number.

If you can, please state the reported viability at 48 h, 100 ug/ml value of `O=C(N/N=C/c1ccc(Br)cc1)c1cnccn1` .
100

Field request: viability at 48 h, 100 ug/ml | item: `N#Cc1ccccc1/C=N/NC(=O)c1cnccn1`
75

Returns the measured viability at 48 h, 100 ug/ml for the input molecule. Input: `O=C(N/N=C/c1cccc(Cl)c1)c1cnccn1`
100

Any idea what viability at 48 h, 100 ug/ml was measured for `O=C(N/N=C/c1cccc(F)c1)c1cnccn1` ?
46

Item under review: `O=C(N/N=C/c1ccccc1)c1cnccn1` . Reported viability at 48 h, 100 ug/ml?
75

Which viability at 48 h, 100 ug/ml is listed for `O=C(N/N=C/c1cccc(Br)c1)c1cnccn1` ?
100

What does the record list as viability at 48 h, 100 ug/ml for `O=C(N/N=C/c1ccccc1Br)c1cnccn1` ?
100

May I ask what viability at 48 h, 100 ug/ml has been recorded for NC(=O)c1cnccn1 [PYRAZINAMIDE] ?
100

Fill in: viability at 48 h, 100 ug/ml of `CCOc1ccc(/C=N/NC(=O)c2cnccn2)cc1` is ___
98

Return reported viability at 48 h, 100 ug/ml; argument: `O=C(N/N=C/c1ccccc1Cl)c1cnccn1`
66

Any idea what its viability at 48 h, 100 ug/ml is? The molecule is `COc1ccc(/C=N/NC(=O)c2cnccn2)cc1`
55

I have this molecule here, `CCOc1cccc(/C=N/NC(=O)c2cnccn2)c1` , and I need its recorded viability at 48 h, 100 ug/ml.
71

Which viability at 48 h, 100 ug/ml is listed for `O=C(N/N=C/c1ccccc1F)c1cnccn1` ?
100

Please look up its viability at 48 h, 100 ug/ml: `CN(C)c1ccc(/C=N/NC(=O)c2cnccn2)cc1`
87

# get_value(readout='viability at 48 h, 100 ug/ml', item= `COc1ccccc1/C=N/NC(=O)c1cnccn1` )
100

# input molecule: `O=C(N/N=C/c1ccc([N+](=O)[O-])cc1)c1cnccn1` ; wanted: its viability at 48 h, 100 ug/ml
44

Consider the molecule shown here: `O=C(N/N=C/c1ccc(F)cc1)c1cnccn1` What is its recorded viability at 48 h, 100 ug/ml?
69

May I ask what viability at 48 h, 100 ug/ml has been recorded for `O=C(N/N=C/c1ccc(O)cc1)c1cnccn1` ?
81

If you can, please state the reported viability at 48 h, 100 ug/ml value of `CCN(CC)c1ccc(/C=N/NC(=O)c2cnccn2)cc1` .
92

Name the recorded viability at 48 h, 100 ug/ml for `O=C(N/N=C/c1ccccc1O)c1cnccn1` .
0.3

Which viability at 48 h, 100 ug/ml is listed for `COc1cccc(/C=N/NC(=O)c2cnccn2)c1` ?
100

Which viability at 48 h, 100 ug/ml is listed for `N#Cc1ccc(/C=N/NC(=O)c2cnccn2)cc1` ?
100

Look up viability at 48 h, 100 ug/ml: `N#Cc1cccc(/C=N/NC(=O)c2cnccn2)c1`
100

Recorded viability at 48 h, 100 ug/ml of `O=C(N/N=C/c1cccc([N+](=O)[O-])c1)c1cnccn1` , please.
85

Consider the molecule `O=C(N/N=C/c1ccccc1[N+](=O)[O-])c1cnccn1` and give its measured viability at 48 h, 100 ug/ml.
59

Need viability at 48 h, 100 ug/ml, item `O=C(N/N=C/c1ccc(Cl)cc1)c1cnccn1`
64

Requested field: viability at 48 h, 100 ug/ml. Item: `O=C(N/N=C/c1cccc(O)c1)c1cnccn1`
100
